Molecular target: Neuropeptide FF receptor 2 (Homo sapiens)
Sequence (Q9Y5X5 whole entry): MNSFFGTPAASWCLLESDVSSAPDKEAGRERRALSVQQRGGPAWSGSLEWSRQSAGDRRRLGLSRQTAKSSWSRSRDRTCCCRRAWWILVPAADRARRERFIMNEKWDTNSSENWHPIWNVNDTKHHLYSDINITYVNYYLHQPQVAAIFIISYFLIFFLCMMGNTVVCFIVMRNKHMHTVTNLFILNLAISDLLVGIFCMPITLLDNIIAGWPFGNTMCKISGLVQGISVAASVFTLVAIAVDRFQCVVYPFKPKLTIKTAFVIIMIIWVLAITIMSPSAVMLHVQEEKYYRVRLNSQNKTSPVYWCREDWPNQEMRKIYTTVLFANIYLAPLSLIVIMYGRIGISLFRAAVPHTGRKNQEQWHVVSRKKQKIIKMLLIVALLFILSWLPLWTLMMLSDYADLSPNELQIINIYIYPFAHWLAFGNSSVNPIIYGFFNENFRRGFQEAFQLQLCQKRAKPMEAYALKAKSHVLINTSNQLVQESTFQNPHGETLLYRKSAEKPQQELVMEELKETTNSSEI
Experiment: Agonist activity at NPFF2R (unknown origin) expressed in HEK293-A cells assessed as inhibition of forskolin-induced cAMP accumulation by measuring maximal efficacy preincubated for 30 mins in presence of 3-isobutyl-1-methylxanthine followed by forskolin and compound addition by competitive PKA binding assay relative to control
Format: functional, cell-based
Conditions: filed as agonist
Bridge positions count the residues as written; N and C are the ends. Square brackets hold non-standard residues; d marks the D form. Peptide text beside a SMILES is read from it. NMeF = CN[C@@H](Cc1ccccc1)C(=O)O; dDab = NCC[C@@H](N)C(=O)O; dDap = NC[C@@H](N)C(=O)O
Measure name: Emax (%)
Give bare numbers, in %.

>>> value_observed("CN1C(=O)CNC(=O)[C@H](NC(=O)[C@@H](N)Cc2ccc(O)cc2)CC(=O)NCCCC[C@@H](C(=O)N2CCC[C@H]2C(=O)N[C@@H](CCC(N)=O)C(=O)N[C@@H](CCCNC(=N)N)C(=O)N[C@@H](Cc2ccccc2)C(N)=O)NC(=O)[C@@H]1Cc1ccccc1 (H-Y[dD]G[NMeF]KPQRF-NH2; lactam 2-5)")
71.8
>>> value_observed("CN1C(=O)CNC(=O)[C@H](NC(=O)[C@@H](N)Cc2ccc(O)cc2)CCNC(=O)C[C@@H](C(=O)N2CCC[C@H]2C(=O)N[C@@H](CCC(N)=O)C(=O)N[C@@H](CCCNC(=N)N)C(=O)N[C@@H](Cc2ccccc2)C(N)=O)NC(=O)[C@@H]1Cc1ccccc1 (H-Y[dDab]G[NMeF]DPQRF-NH2; lactam 2-5)")
63.2

Now let's try a different one.
May I ask what Emax has been recorded for CN1C(=O)CNC(=O)[C@H](NC(=O)[C@@H](N)Cc2ccc(O)cc2)CNC(=O)C[C@@H](C(=O)N2CCC[C@H]2C(=O)N[C@@H](CCC(N)=O)C(=O)N[C@@H](CCCNC(=N)N)C(=O)N[C@@H](Cc2ccccc2)C(N)=O)NC(=O)[C@@H]1Cc1ccccc1 (H-Y[dDap]G[NMeF]DPQRF-NH2; lactam 2-5) ?
63.9
